Listing of recorded In vitro activity (%) vs. GLP-1, cAMP EC50 by entry.
Target: human GLP-1 receptor (human, UniProt P43220 24-463)
Assay: cell-based or functional assay
Bridges are numbered along the chain shown (N, C = ends). Where no end group is shown, it is not given here. [ ]: non-standard residue; d: D form. The star is where a group is joined. Acetyl(2-(4-imidazolyl)) = O=C(Cc1c[nH]cn1)*; Aib = CC(C)(N)C(=O)O
The reply must contain the numeric value and, after it, the unit.

Below, each entry is followed by its recorded In vitro activity (%) vs. GLP-1, cAMP EC50 result.
{Acetyl(2-(4-imidazolyl))}-[Aib]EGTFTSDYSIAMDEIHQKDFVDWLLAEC (bridge 15-19) [triple agonist of SEQ ID NO: 84] : 4.2%
Y[Aib]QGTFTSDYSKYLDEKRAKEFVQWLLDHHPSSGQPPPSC (bridge 16-20) [triple agonist of SEQ ID NO: 42] : 33.9%

Query (binder): Y[Aib]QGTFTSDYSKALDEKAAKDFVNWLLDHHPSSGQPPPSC (bridge 16-20; ends not checked) [triple agonist of SEQ ID NO: 99] ; field requested: In vitro activity (%) vs. GLP-1, cAMP EC50
20.9%
